Target: Thrombin (Homo sapiens, UniProt P00734)
Assay: Related protease inhibition: Thrombin, fluorogenic substrate
Type: biochemical
Conditions: fluorogenic substrate at Km, 25° C.; H1-H3 = % activity at 40 μM; read-out: IC50 (human thrombin) nM
Reported activity at 40 µM values for a set of compounds

- compound: "COCCNC(=O)c1nn(-c2cccc(Cl)c2)c2c1CCN(c1ccc3c(c1)C(=O)N(C)CC3)C2=O [Example 1410]"
  activity at 40 µM: "< 20%"
- compound: "CN1CCOc2ccc(N3CCc4c(C(=O)N[C@@H](CO)C5CC5)nn(-c5cccc(Cl)c5F)c4C3=O)cc2C1=O [Example 2049]"
  activity at 40 µM: "> 80%"
- compound: "CCNC(=O)c1nn(-c2cccc(Cl)c2)c2c1CCN(c1ccc3c(c1)N(C(C)=O)CC31CC1)C2=O [Example 1429]"
  activity at 40 µM: "20 to 80%"
- compound: "CCNC(=O)c1nn(-c2cccc(Cl)c2)c2c1CCN(c1ccc3c(c1)NCCO3)C2=O [Example 1422]"
  activity at 40 µM: "20 to 80%"
- compound: "CN1CCc2ccc(N3CCc4c(C(=O)NC5CCNCC5(F)F)nn(-c5cccc(Cl)c5)c4C3=O)cc2C1=O (stereo not shown) [Example 1424]"
  activity at 40 µM: "> 80%"
- compound: "Cc1ccc(CNC(=O)c2nn(-c3cccc(Cl)c3F)c3c2CCN(c2ccc4c(c2)C(=O)N(C)CC4)C3=O)cn1 [Example 2044]"
  activity at 40 µM: "20 to 80%"
- compound: "CCNC(=O)c1nn(-c2cccc(Cl)c2)c2c1CCN(c1cccc(N3CC4(COC4)CC3=O)c1)C2=O [Example 1428]"
  activity at 40 µM: "> 80%"

###

Biological target: UniProt P00748
Sequence (P00748 373-615 limits assumed): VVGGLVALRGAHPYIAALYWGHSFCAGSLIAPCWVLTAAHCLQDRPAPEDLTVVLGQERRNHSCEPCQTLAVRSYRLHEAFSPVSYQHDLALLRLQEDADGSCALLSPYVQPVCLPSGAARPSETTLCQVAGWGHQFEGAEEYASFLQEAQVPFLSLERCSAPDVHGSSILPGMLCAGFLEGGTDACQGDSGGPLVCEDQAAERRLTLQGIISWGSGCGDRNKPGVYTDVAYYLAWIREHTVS
Sequence (P00748 20-372 partner limits assumed): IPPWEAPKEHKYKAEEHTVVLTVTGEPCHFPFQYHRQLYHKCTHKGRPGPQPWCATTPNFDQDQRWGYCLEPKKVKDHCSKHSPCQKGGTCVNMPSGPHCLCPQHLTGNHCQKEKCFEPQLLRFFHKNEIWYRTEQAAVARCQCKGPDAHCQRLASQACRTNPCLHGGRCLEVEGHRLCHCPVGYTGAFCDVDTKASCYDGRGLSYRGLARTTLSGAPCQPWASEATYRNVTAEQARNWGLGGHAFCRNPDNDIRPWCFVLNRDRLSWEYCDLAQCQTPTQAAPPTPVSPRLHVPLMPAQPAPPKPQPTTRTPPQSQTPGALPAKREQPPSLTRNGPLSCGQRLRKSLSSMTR
pIC50: −log10 of the molar value.
Reported pIC50 values for a set of compounds
endpoint: pIC50

- compound: "N#Cc1nn(-c2cccc(Cl)c2)c2c(=O)n(-c3ccc4c(c3)CN(CCO)CC4)cnc12"
  endpoint: "pIC50"
  experimental-result: "6.52 to 7.00"
- compound: "Cc1ccc(-n2nc(C(=O)NCc3cnccc3C)c3c2C(=O)N(c2ccc4c(c2)CN(CCO)CC4)CC3)cc1Cl"
  endpoint: "pIC50"
  experimental-result: "6.52 to 7.00"
- compound: "O=C(NCC1CC1(F)F)c1nn(-c2cccc(Cl)c2)c2c1CCN(c1ccc3c(c1)CN(CCO)CC3)C2=O (stereo not shown)"
  endpoint: "pIC50"
  experimental-result: "6.52 to 7.00"
- compound: "CN1C(=O)C(C)(C)c2ccc(N3CCc4c(C(=O)NCC5CC5)nn(-c5cccc(Cl)c5)c4C3=O)cc21"
  endpoint: "pIC50"
  experimental-result: "4.40 to 5.00"
